Entry source: patent US20070117743A1

Below: a set of entries, each annotated with reported TGI PANC-1.
test system: PANC-1; experiment: SRB colorimetric assay of cell growth and viability, PANC-1; assay type: cell-based, human; details: 48 hours exposure, SRB
Where a SMILES comes first, the peptide text is derived from it. Bridges are numbered along the chain shown (N, C = ends). [ ]: non-standard residue; d: D form. The star is where a group is joined. d(aIle) = CC[C@H](C)[C@@H](N)C(=O)O; d(aThr) = C[C@@H](O)[C@@H](N)C(=O)O; Hexanoyl(5-Me) = CC(C)CCCC(=O)*; Orn = NCCC[C@H](N)C(=O)O; Aib = CC(C)(N)C(=O)O
Express the result in Molar but write the number alone.

Worked examples follow.
INSERT INTO assay_data (compound, observed_result) VALUES
  ('CC[C@H](C)[C@@H](NC(=O)[C@H](CCCN)NC(=O)[C@H]1CCCN1C(=O)[C@H](NC(=O)[C@@H](NC(=O)[C@@H](NC(=O)[C@H](NC(=O)CCCC(C)C)C(C)C)[C@@H](C)O)C(C)C)C(C)C)C(=O)N[C@H]1C(=O)N[C@H]([C@@H](C)CC)C(=O)N[C@H](C(C)C)C(=O)N[C@@H](Cc2ccccc2)C(=O)NC(C)(C)C(=O)N[C@@H](C(C)C)C(=O)O[C@@H]1C [Compound 66, [Aib^2]-KF] ({Hexanoyl(5-Me)}-[dV]TV[dV][dP][Orn][d(aIle)][d(aThr)][d(aIle)][dV]F[Aib]V; ester 8-C)', '6.76E−06'),
  ('C/C=C1\NC(=O)[C@H](Cc2ccccc2)N(C)C(=O)[C@@H](C(C)C)NC(=O)[C@@H]([C@@H](C)CC)NC(=O)[C@H](NC(=O)[C@H](NC(=O)[C@H](CCCN)NC(=O)[C@H]2CCCN2C(=O)[C@H](NC(=O)[C@@H](NC(=O)[C@@H](NC(=O)[C@H](NC(=O)CC[C@@H](C)CC)C(C)C)[C@@H](C)O)C(C)C)C(C)C)[C@@H](C)CC)[C@@H](C)OC(=O)[C@H](C(C)C)NC1=O [Compound 80, [NMePhe^3, (4S)-MeHex^14]-KF]', '3.82E−06'),
  ('C/C=C1\NC(=O)[C@@H](Cc2ccccc2)NC(=O)[C@H](C(C)C)NC(=O)[C@H]([C@H](C)CC)NC(=O)[C@@H](NC(=O)[C@@H](NC(=O)[C@@H](CCCN)NC(=O)[C@@H]2CCCN2C(=O)[C@@H](NC(=O)[C@H](NC(=O)[C@H](NC(=O)[C@@H](NC(=O)CCCC(C)C)C(C)C)[C@H](C)O)C(C)C)C(C)C)[C@H](C)CC)[C@H](C)OC(=O)[C@@H](C(C)C)NC1=O', '6.77E−06'),
  ('C/C=C1\NC(=O)[C@H](Cc2ccccc2)NC(=O)[C@@H](C(C)C)NC(=O)[C@@H]([C@@H](C)CC)NC(=O)[C@H](NC(=O)[C@H](NC(=O)[C@H](CCCNC(=O)C(F)(F)F)NC(=O)[C@H]2CCCN2C(=O)[C@H](NC(=O)[C@@H](NC(=O)[C@@H](NC(=O)[C@H](NC(=O)CC[C@@H](C)CC)C(C)C)[C@@H](C)OC(=O)C(F)(F)F)C(C)C)C(C)C)[C@@H](C)CC)[C@@H](C)OC(=O)[C@H](C(C)C)NC1=O', '5.99E−06'),
  ('C/C=C1\NC(=O)[C@H](Cc2ccccc2)NC(=O)[C@@H](C(C)C)NC(=O)[C@@H]([C@@H](C)CC)NC(=O)[C@H](NC(=O)[C@H](NC(=O)[C@H](CCCC[N+](C)(C)C)NC(=O)[C@H]2CCCN2C(=O)[C@H](NC(=O)[C@@H](NC(=O)[C@@H](NC(=O)[C@H](NC(=O)CC[C@@H](C)CC)C(C)C)[C@@H](C)O)C(C)C)C(C)C)[C@@H](C)CC)[C@@H](C)OC(=O)[C@H](C(C)C)NC1=O [Compound 93, [N^ε(Me)3-Lys^8, (4S)-MeHex^14]-KF]', '2.08E−06');

Read the next record carefully.
# TGI PANC-1 of C/C=C1\NC(=O)[C@H](Cc2ccc(F)cc2)NC(=O)[C@@H](C(C)C)NC(=O)[C@@H]([C@@H](C)CC)NC(=O)[C@H](NC(=O)[C@H](NC(=O)[C@H](CCCN)NC(=O)[C@H]2CCCN2C(=O)[C@H](NC(=O)[C@@H](NC(=O)[C@@H](NC(=O)[C@H](NC(=O)CC[C@@H](C)CC)C(C)C)[C@@H](C)O)C(C)C)C(C)C)[C@@H](C)CC)[C@@H](C)OC(=O)[C@H](C(C)C)NC1=O [Compound 74, [Phe(4-F)^3, (4S)-MeHex^14]-KF] = 1.98E−06
